Target: Nuclear factor NF-kappa-B p105 subunit (Homo sapiens, UniProt P19838)
Sequence (P19838 whole entry): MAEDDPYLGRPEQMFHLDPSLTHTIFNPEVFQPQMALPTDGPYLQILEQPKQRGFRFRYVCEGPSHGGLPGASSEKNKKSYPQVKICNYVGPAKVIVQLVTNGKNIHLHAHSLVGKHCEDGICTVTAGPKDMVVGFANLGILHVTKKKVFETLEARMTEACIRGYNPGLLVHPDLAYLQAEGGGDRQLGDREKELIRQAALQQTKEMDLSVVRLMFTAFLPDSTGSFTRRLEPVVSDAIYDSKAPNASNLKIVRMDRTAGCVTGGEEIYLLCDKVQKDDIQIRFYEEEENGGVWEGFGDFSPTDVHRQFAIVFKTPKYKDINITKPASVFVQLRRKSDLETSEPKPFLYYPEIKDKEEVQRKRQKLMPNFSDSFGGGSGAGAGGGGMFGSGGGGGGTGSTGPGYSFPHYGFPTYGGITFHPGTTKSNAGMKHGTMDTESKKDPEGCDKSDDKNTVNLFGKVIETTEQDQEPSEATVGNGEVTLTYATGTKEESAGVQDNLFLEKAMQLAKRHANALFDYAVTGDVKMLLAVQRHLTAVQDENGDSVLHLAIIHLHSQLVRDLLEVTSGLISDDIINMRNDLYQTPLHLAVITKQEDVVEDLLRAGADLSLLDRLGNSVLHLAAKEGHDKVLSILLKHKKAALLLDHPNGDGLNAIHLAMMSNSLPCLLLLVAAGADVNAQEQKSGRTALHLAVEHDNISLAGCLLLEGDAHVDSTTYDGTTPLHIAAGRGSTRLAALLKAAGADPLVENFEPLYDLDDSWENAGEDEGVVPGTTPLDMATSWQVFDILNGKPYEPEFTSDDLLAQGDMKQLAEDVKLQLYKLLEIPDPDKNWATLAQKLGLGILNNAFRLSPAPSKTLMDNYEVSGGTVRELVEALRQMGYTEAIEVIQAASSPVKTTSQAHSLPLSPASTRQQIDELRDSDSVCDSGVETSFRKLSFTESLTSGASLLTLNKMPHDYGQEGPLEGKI
Assay: In vitro inhibitory activity against human Jurkat T-Cells stably transfected with an Nuclear factor kappa B transcription factor
measurement.label: log10 IC50 (log10 of the value in µM)
Response schema: value (number) is log10 of IC50 in units of µM.

[in] Quick one: log10 IC50 of O=C(c1cnc(Cl)nc1C(F)(F)F)N(Cc1ccccc1)c1cc(Cl)cc(Cl)c1 ?
[out] 0.43

[in] Quick one: log10 IC50 of NC(=O)c1cc(NC(=O)c2cnc(Cl)nc2C(F)(F)F)cc(C(F)(F)F)c1 ?
[out] 0.70

[in] Quick one: log10 IC50 of O=C(Nc1cc(Cl)cc(Cl)c1)c1cnc(N2CCCCC2)nc1C(F)(F)F ?
[out] 0.70

[in] Quick one: log10 IC50 of O=C(Nc1cc(Cl)cc(Cl)c1)c1cnc(Cl)nc1C(F)(F)F ?
[out] -0.30

[in] Quick one: log10 IC50 of CCOC(=O)c1cc(NC(=O)c2cnc(Cl)nc2C(F)(F)F)cc(C(F)(F)F)c1 ?
[out] -0.55

[in] Quick one: log10 IC50 of O=C(Nc1cc(Cl)c(Cl)c(Cl)c1)c1cnc(Cl)nc1C(F)(F)F ?
[out] -0.05

[in] Quick one: log10 IC50 of Cc1ccc(NC(=O)c2cnc(Cl)nc2C(F)(F)F)s1 ?
[out] 0.36

[in] Quick one: log10 IC50 of Cc1cc(NC(=O)c2cnc(Cl)nc2C(F)(F)F)on1 ?
[out] 0.60

[in] Quick one: log10 IC50 of O=C(Nc1cc(Cl)nc(Cl)n1)c1cnc(Cl)nc1C(F)(F)F ?
[out] -0.10

[in] Quick one: log10 IC50 of O=C(Nc1cc(C(F)(F)F)cc(C(F)(F)F)c1)c1cnc(Cl)nc1C(F)(F)F ?
[out] -1.30

[in] Quick one: log10 IC50 of CCOP(=O)(COC(=O)c1cc(NC(=O)c2cnc(Cl)nc2C(F)(F)F)cc(C(F)(F)F)c1)OCC ?
[out] 0.66
